Recorded log10 MIC80 for the following compounds
# System: Mycobacterium tuberculosis
# MEASUREMENT_PROTOCOL: Antimicrobial activity against clinical isolate Mycobacterium tuberculosis Erdman assessed as growth inhibition after 7 days by turbidometry
# Assay type: functional
# CONDITION_NOTES: 168 h
RESULT_TYPE: log10 MIC80 (log10 of the value in µg/mL)

# ENTRY_SMILES, MEASURED
records = [
    ("CCCc1cc(-c2nc(-c3ccc(OCC4CC4)cc3)cs2)ccn1", -0.30),
    ("NNC(=O)c1ccncc1", -1.22),
    ("CCCc1cc(-c2nc(-c3ccc(OCCN4CCOCC4)cc3)cs2)ccn1", 0.00),
    ("CO[C@H]1/C=C/O[C@@]2(C)Oc3c(C)c(O)c4c(O)c(c(/C=N/N5CCN(C)CC5)c(O)c4c3C2=O)NC(=O)/C(C)=C\\C=C\\[C@H](C)[C@H](O)[C@@H](C)[C@@H](O)[C@@H](C)[C@H](OC(C)=O)[C@@H]1C", -2.52),
    ("CCCc1cc(-c2nc(-c3ccc(NS(C)(=O)=O)cc3)cs2)ccn1", -0.89),
    ("CCCc1cc(-c2nc(-c3cccc(OC)c3)cs2)ccn1", -0.60),
]
